- assay_target: T1, human KLK5 (human, UniProt Q9Y337 67-293)
- T1 construct: also called huKLK5; KLK5 AMC
- T1 sequence: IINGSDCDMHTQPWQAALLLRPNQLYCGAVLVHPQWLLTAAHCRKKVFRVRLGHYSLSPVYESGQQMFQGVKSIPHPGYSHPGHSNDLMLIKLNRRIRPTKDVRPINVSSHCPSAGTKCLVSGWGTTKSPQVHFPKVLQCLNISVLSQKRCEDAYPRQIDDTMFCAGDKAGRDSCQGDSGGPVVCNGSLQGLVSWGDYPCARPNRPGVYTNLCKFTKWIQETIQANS
- protocol: SPR, one-armed monovalent antibody
assay_metric: koff
Give the figure together with its unit, number first.

Below, each entry is followed by its recorded koff result.
# binder, koff
data = [
    ("OA.hu.9H5.H14L4.G54A.H89V (antibody, V domains shown, One-armed (OA) monovalent anti-KLK5 antibody with a human IgG1 Fc, with Q38E/Q39K; constant regions and dummy Fc chain not specified) VH: EVQLVESGGGLIQPGGSLRLSCAASGFSLSSYGVSWVRKAPGKGLEYVGFIGSAGFAYYASWAKSRFTISRDNSKNTLYLQMNSLRAEDTAVYYCARDDVGGGKSLDIWGQGTLVTVSS VL: DIQMTQSPSSLSASVGDRVTITCQASQSISSYLSWYQEKPGKAPKLLIYSASTLASGVPSRFSGSGSGTDFTLTISSLQPEDFATYYCVQDYTSSNVDNTFGGGTKVEIK", "3.85e-05 s⁻¹"),
    ("OA.hu.9H5.H14L4.G54A.G98Q.H89V.S95Y (antibody, V domains shown, One-armed (OA) monovalent anti-KLK5 antibody with a human IgG1 Fc, with Q38E/Q39K; constant regions and dummy Fc chain not specified) VH: EVQLVESGGGLIQPGGSLRLSCAASGFSLSSYGVSWVRKAPGKGLEYVGFIGSAGFAYYASWAKSRFTISRDNSKNTLYLQMNSLRAEDTAVYYCARDDVQGGKSLDIWGQGTLVTVSS VL: DIQMTQSPSSLSASVGDRVTITCQASQSISSYLSWYQEKPGKAPKLLIYSASTLASGVPSRFSGSGSGTDFTLTISSLQPEDFATYYCVQDYTSYNVDNTFGGGTKVEIK", "2.39e-05 s⁻¹"),
    ("OA.hu.9H5.H14L4 (antibody, V domains shown, One-armed (OA) monovalent anti-KLK5 antibody with a human IgG1 Fc, with Q38E/Q39K; constant regions and dummy Fc chain not specified) VH: EVQLVESGGGLIQPGGSLRLSCAASGFSLSSYGVSWVRKAPGKGLEYVGFIGSGGFAYYASWAKSRFTISRDNSKNTLYLQMNSLRAEDTAVYYCARDDVGGGKSLDIWGQGTLVTVSS VL: DIQMTQSPSSLSASVGDRVTITCQASQSISSYLSWYQEKPGKAPKLLIYSASTLASGVPSRFSGSGSGTDFTLTISSLQPEDFATYYCHQDYTSSNVDNTFGGGTKVEIK", "0.000272 s⁻¹"),
    ("OA.hu.9H5.H14L4.G54A.S95Y (antibody, V domains shown, One-armed (OA) monovalent anti-KLK5 antibody with a human IgG1 Fc, with Q38E/Q39K; constant regions and dummy Fc chain not specified) VH: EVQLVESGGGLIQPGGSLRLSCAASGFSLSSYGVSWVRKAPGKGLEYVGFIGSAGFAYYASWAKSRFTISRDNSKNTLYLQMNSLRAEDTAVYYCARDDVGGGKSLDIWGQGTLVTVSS VL: DIQMTQSPSSLSASVGDRVTITCQASQSISSYLSWYQEKPGKAPKLLIYSASTLASGVPSRFSGSGSGTDFTLTISSLQPEDFATYYCHQDYTSYNVDNTFGGGTKVEIK", "1.6e-05 s⁻¹"),
    ("OA.hu.9H5.H14L4.G98Q.S95Y (antibody, V domains shown, One-armed (OA) monovalent anti-KLK5 antibody with a human IgG1 Fc, with Q38E/Q39K; constant regions and dummy Fc chain not specified) VH: EVQLVESGGGLIQPGGSLRLSCAASGFSLSSYGVSWVRKAPGKGLEYVGFIGSGGFAYYASWAKSRFTISRDNSKNTLYLQMNSLRAEDTAVYYCARDDVQGGKSLDIWGQGTLVTVSS VL: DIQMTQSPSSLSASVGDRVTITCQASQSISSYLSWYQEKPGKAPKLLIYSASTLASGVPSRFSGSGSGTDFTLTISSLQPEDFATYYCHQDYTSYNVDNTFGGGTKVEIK", "3.94e-05 s⁻¹"),
    ("OA.hu.9H5.H14L4.G54A.G98Q.S95Y (antibody, V domains shown, One-armed (OA) monovalent anti-KLK5 antibody with a human IgG1 Fc, with Q38E/Q39K; constant regions and dummy Fc chain not specified) VH: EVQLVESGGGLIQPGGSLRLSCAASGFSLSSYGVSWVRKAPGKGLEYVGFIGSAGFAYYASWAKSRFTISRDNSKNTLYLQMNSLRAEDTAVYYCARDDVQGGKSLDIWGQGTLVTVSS VL: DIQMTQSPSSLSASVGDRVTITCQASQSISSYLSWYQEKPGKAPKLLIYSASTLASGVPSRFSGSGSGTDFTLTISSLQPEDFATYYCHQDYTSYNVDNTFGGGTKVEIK", "2.71e-05 s⁻¹"),
    ("OA.hu.9H5.H14L4.G98Q.H89V (antibody, V domains shown, One-armed (OA) monovalent anti-KLK5 antibody with a human IgG1 Fc, with Q38E/Q39K; constant regions and dummy Fc chain not specified) VH: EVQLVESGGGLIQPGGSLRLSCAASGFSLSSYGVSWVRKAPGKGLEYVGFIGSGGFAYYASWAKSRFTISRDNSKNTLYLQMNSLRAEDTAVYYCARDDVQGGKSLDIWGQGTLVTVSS VL: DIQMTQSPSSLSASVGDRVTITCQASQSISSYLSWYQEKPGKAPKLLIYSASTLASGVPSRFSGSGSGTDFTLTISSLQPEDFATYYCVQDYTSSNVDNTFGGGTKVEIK", "4.46e-05 s⁻¹"),
    ("OA.hu.9H5.H14L4.G98Q.H89V.S95Y (antibody, V domains shown, One-armed (OA) monovalent anti-KLK5 antibody with a human IgG1 Fc, with Q38E/Q39K; constant regions and dummy Fc chain not specified) VH: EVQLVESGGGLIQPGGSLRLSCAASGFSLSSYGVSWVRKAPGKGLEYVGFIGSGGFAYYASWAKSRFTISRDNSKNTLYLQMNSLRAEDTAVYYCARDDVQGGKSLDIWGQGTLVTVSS VL: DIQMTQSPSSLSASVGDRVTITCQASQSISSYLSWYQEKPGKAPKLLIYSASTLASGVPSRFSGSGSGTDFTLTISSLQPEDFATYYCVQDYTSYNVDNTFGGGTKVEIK", "4.91e-05 s⁻¹"),
    ("OA.hu.9H5.H14L4.G54A.H89V.S95Y (antibody, V domains shown, One-armed (OA) monovalent anti-KLK5 antibody with a human IgG1 Fc, with Q38E/Q39K; constant regions and dummy Fc chain not specified) VH: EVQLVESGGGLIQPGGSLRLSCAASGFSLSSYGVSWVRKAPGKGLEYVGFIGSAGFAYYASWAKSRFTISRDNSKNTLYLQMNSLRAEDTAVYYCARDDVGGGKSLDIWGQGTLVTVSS VL: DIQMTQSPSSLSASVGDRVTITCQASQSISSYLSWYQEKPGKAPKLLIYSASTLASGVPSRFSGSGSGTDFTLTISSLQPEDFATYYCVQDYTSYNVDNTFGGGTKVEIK", "1.37e-05 s⁻¹"),
]

Exercise: Item under review: OA.hu.9H5.H14L4.G54A.G98Q.H89V (antibody, V domains shown, One-armed (OA) monovalent anti-KLK5 antibody with a human IgG1 Fc, with Q38E/Q39K; constant regions and dummy Fc chain not specified) VH: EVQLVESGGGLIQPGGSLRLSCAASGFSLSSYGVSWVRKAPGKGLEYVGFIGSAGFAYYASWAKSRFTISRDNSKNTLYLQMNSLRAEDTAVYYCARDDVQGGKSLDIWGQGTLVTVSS VL: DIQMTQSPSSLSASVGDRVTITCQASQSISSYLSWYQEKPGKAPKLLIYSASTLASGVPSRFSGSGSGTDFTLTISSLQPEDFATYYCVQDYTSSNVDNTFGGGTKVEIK . Reported koff?
Key: 2.97e-06 s⁻¹

Hey, just so you know, these numbers are from patent US20240084042A1.
